In this section, each of the compounds is paired with its reported residual activity.
system under test: Tyrosine-protein kinase Fes/Fps (Homo sapiens)
condition details: at 10 µM
measurement label: residual activity

[[record]]
compound = "CO[C@@H]1[C@H](N(C)C(=O)c2ccccc2)C[C@H]2O[C@]1(C)n1c3ccccc3c3c4c(c5c6ccccc6n2c5c31)C(=O)NC4"
measured_result = "9%"

[[record]]
compound = "CCN(CC)CCCCN1c2ccccc2Oc2ccc(Cl)cc21"
measured_result = "88%"

[[record]]
compound = "Ic1cccc(CSc2nnc(-c3ccncc3)o2)c1"
measured_result = "92%"

[[record]]
compound = "Oc1ccc(-c2nc(-c3ccc(F)cc3)c(-c3ccncc3)[nH]2)cc1"
measured_result = "99%"

[[record]]
compound = "CCC(=O)Nc1ccc2ncnc(Nc3cccc(Br)c3)c2c1"
measured_result = "78%"

[[record]]
compound = "O=C1Nc2ccc(Br)cc2/C1=C\\c1cc2c([nH]1)CCCC2"
measured_result = "78%"

[[record]]
compound = "O=C1Nc2ccccc2/C1=C1/Nc2ccccc2/C1=N\\OCCC(O)CO (configuration not stated)"
measured_result = "48%"

[[record]]
compound = "Cn1nc2c3c(cccc31)C(=O)c1ccccc1-2"
measured_result = "94%"

[[record]]
compound = "CNc1cc2c(Nc3cccc(Br)c3)ncnc2cn1"
measured_result = "92%"

[[record]]
compound = "c1ccc2c(-c3ccncc3)c[nH]c2c1"
measured_result = "72%"

[[record]]
compound = "Oc1ccc(Nc2nc(-c3ccc(Cl)cc3)cs2)cc1"
measured_result = "95%"

[[record]]
compound = "O=C(Nc1cccc(Nc2nccc(Nc3cccc(C(F)(F)F)c3)n2)c1)C1CC1"
measured_result = "68%"

[[record]]
compound = "O=C1NC(=O)c2cc(Nc3ccc(F)cc3)c(Nc3ccc(F)cc3)cc21"
measured_result = "69%"

[[record]]
compound = "C[C@@H](N)[C@H]1CC[C@H](C(=O)Nc2ccncc2)CC1"
measured_result = "108%"

[[record]]
compound = "O=[N+]([O-])c1ccc(-c2nc(-c3ccc(F)cc3)c(-c3ccncc3)[nH]2)cc1"
measured_result = "116%"

[[record]]
compound = "Cn1cnc2cc3c(Nc4cccc(Br)c4)ncnc3cc21"
measured_result = "83%"

[[record]]
compound = "O=C1NC(=O)c2c1c1c3ccccc3[nH]c1c1[nH]c3cc(Br)ccc3c21"
measured_result = "96%"

[[record]]
compound = "CC[n+]1c(/C=C/N(C)c2ccccc2)n(-c2ccccc2)c2ccc(-c3nc4ccccc4s3)cc21"
measured_result = "105%"

[[record]]
compound = "COc1cc2ncnc(N3CCN(C(=O)Nc4ccc(Oc5ccccc5)cc4)CC3)c2cc1OC"
measured_result = "86%"

[[record]]
compound = "Oc1n[nH]c2nnc(-c3c(-c4ccccc4)nn4ccccc34)cc12"
measured_result = "108%"

[[record]]
compound = "N#C/C(=C(\\N)Sc1ccc(N)cc1)c1ccccc1C(F)(F)F"
measured_result = "100%"

[[record]]
compound = "Cc1nc(-c2ccccc2)c(-c2ccncc2)o1"
measured_result = "120%"


====

system under test: Discoidin domain-containing receptor 2 (Homo sapiens)
Sequence (whole entry): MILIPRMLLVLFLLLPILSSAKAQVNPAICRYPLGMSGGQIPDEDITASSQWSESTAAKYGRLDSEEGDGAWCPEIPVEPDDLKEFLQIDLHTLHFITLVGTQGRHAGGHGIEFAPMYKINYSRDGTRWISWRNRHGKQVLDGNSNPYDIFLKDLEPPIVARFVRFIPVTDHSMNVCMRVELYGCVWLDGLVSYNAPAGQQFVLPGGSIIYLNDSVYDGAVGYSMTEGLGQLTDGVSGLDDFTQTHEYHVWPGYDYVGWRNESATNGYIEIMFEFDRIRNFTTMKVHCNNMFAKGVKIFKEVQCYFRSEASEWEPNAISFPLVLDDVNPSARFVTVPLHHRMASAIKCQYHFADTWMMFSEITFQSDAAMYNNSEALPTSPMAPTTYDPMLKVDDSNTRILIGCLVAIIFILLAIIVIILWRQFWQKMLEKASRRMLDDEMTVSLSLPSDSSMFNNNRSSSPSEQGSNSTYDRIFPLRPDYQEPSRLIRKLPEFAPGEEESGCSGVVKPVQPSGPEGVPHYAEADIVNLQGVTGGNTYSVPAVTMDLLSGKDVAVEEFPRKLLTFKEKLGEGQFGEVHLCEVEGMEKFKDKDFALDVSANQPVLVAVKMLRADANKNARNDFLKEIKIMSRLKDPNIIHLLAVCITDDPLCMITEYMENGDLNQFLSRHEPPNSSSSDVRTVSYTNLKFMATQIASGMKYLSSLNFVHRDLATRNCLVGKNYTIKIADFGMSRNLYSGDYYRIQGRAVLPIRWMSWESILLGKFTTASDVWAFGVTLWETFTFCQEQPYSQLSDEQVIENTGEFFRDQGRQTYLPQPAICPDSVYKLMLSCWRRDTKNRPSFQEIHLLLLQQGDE
condition details: at 1 µM
measurement label: residual activity (%)

[[record]]
compound = "O=C(O)c1ccc2c3c1cccc3c(=O)n1c3ccccc3nc21"
system_under_test = "Discoidin domain-containing receptor 2 (Homo sapiens)"
output_unit = "%"
measured_result = 99

[[record]]
compound = "COc1ccc(C(=O)Nc2sc3c(c2C(N)=O)CCCC3)cc1OC"
system_under_test = "Discoidin domain-containing receptor 2 (Homo sapiens)"
output_unit = "%"
measured_result = 101

[[record]]
compound = "O=C1NC(=O)/C(=C/c2ccc3c(c2)OC(F)(F)O3)S1"
system_under_test = "Discoidin domain-containing receptor 2 (Homo sapiens)"
output_unit = "%"
measured_result = 130

[[record]]
compound = "COc1ccc(CNc2nc(N(CCO)CCO)nc3c2ncn3C(C)C)cc1"
system_under_test = "Discoidin domain-containing receptor 2 (Homo sapiens)"
output_unit = "%"
measured_result = 91

[[record]]
compound = "N#Cc1cnc2cnc(NCc3cccnc3)cc2c1Nc1ccc(F)c(Cl)c1"
system_under_test = "Discoidin domain-containing receptor 2 (Homo sapiens)"
output_unit = "%"
measured_result = 80

[[record]]
compound = "CCOc1cc2ncnc(Nc3cccc(Br)c3)c2cc1OCC"
system_under_test = "Discoidin domain-containing receptor 2 (Homo sapiens)"
output_unit = "%"
measured_result = 93

[[record]]
compound = "O=C1Nc2ccc(Br)cc2/C1=C\\c1cc2c([nH]1)CCCC2"
system_under_test = "Discoidin domain-containing receptor 2 (Homo sapiens)"
output_unit = "%"
measured_result = 110

[[record]]
compound = "C[C@@H](N)[C@H]1CC[C@H](C(=O)Nc2ccncc2)CC1"
system_under_test = "Discoidin domain-containing receptor 2 (Homo sapiens)"
output_unit = "%"
measured_result = 108

[[record]]
compound = "CN(C)CCCn1cc(C2=C(c3c[nH]c4ccccc34)C(=O)NC2=O)c2ccccc21"
system_under_test = "Discoidin domain-containing receptor 2 (Homo sapiens)"
output_unit = "%"
measured_result = 113

[[record]]
compound = "COc1cc2ncnc(Nc3ccc(Oc4ccccc4)cc3)c2cc1OC"
system_under_test = "Discoidin domain-containing receptor 2 (Homo sapiens)"
output_unit = "%"
measured_result = 113

[[record]]
compound = "O=C1c2ccccc2-[n+]2ccc3c([nH]c4ccccc43)c21"
system_under_test = "Discoidin domain-containing receptor 2 (Homo sapiens)"
output_unit = "%"
measured_result = 78

[[record]]
compound = "Cn1nc2c3c(cccc31)C(=O)c1ccccc1-2"
system_under_test = "Discoidin domain-containing receptor 2 (Homo sapiens)"
output_unit = "%"
measured_result = 100

[[record]]
compound = "Cn1cnc2cc3c(Nc4cccc(Br)c4)ncnc3cc21"
system_under_test = "Discoidin domain-containing receptor 2 (Homo sapiens)"
output_unit = "%"
measured_result = 75

[[record]]
compound = "Nc1cccc(-c2cc3c(Oc4cccc(O)c4)ncnc3[nH]2)c1"
system_under_test = "Discoidin domain-containing receptor 2 (Homo sapiens)"
output_unit = "%"
measured_result = 23

[[record]]
compound = "Cc1ccc(NC2=CC(=O)c3sc(C)nc3C2=O)cc1"
system_under_test = "Discoidin domain-containing receptor 2 (Homo sapiens)"
output_unit = "%"
measured_result = 94

[[record]]
compound = "N#C/C(=C(\\N)Sc1ccc(N)cc1)c1ccccc1C(F)(F)F"
system_under_test = "Discoidin domain-containing receptor 2 (Homo sapiens)"
output_unit = "%"
measured_result = 91

[[record]]
compound = "CNc1cc2c(Nc3cccc(Br)c3)ncnc2cn1"
system_under_test = "Discoidin domain-containing receptor 2 (Homo sapiens)"
output_unit = "%"
measured_result = 84

[[record]]
compound = "Nc1nc(Nc2ccc(S(N)(=O)=O)cc2)nn1C(=S)Nc1c(F)cccc1F"
system_under_test = "Discoidin domain-containing receptor 2 (Homo sapiens)"
output_unit = "%"
measured_result = 74

[[record]]
compound = "COc1ccc(OC)c2c(=S)c3ccccc3[nH]c12"
system_under_test = "Discoidin domain-containing receptor 2 (Homo sapiens)"
output_unit = "%"
measured_result = 99

[[record]]
compound = "Nc1n[nH]c2nnc(-c3c(-c4ccccc4)nn4ccccc34)cc12"
system_under_test = "Discoidin domain-containing receptor 2 (Homo sapiens)"
output_unit = "%"
measured_result = 94

[[record]]
compound = "Cn1cc(/C=C2\\C(=O)Nc3ccc(S(N)(=O)=O)cc32)c2ccccc21"
system_under_test = "Discoidin domain-containing receptor 2 (Homo sapiens)"
output_unit = "%"
measured_result = 94

[[record]]
compound = "CO[C@H]1[C@@H](OC)C[C@H](C)[C@@H](OC)C2=CC(=O)C=C(NC(=O)/C(C)=C/C=C/[C@H](OC)[C@@H](OC(N)=O)/C(C)=C/[C@@H]1C)C2=O"
system_under_test = "Discoidin domain-containing receptor 2 (Homo sapiens)"
output_unit = "%"
measured_result = 98

